# Tested System: T1, human leukocyte elastase (hLE) (human), P08246
# T1 chain: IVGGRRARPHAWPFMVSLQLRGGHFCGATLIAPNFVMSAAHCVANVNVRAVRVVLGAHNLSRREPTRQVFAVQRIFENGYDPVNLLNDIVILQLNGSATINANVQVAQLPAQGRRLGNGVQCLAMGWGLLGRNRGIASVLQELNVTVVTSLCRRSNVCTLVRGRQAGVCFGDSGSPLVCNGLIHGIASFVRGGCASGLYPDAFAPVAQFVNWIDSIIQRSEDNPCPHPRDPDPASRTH
# Details: modification not given
Reported Endpoint: Ki (nM)
Quick note: give the figure in nM, leave out the unit.

Task: Specify reported Ki for the binder shown: EILIFWSKEIGYSFT [peptide 23]
Output: 550
